Data origin: patent US6710017B2

- condition-details: agricultural fungicides, Table B
Please enter true (1) where Margin of Exposure vs. RfD is greater than or equal to 0.2, and false (0) where it is lower.

For this compound, is measured Margin of Exposure vs. RfD 0.2 or higher? CCSC(=O)N(CC)C1CCCCC1 [Cycloate, S-ethyl cyclohexyl(ethyl)thiocarbamate]
false (0)

Quick check, Margin of Exposure vs. RfD >= 0.2? CC(=O)O.CCCCCCCCCCCCNC(=N)N [Dodine, 1-dodecylguanidine acetate]
false (0)

# bool: Margin of Exposure vs. RfD of CO/C=C(/C(=O)OC)c1ccccc1Oc1cc(Oc2ccccc2C#N)ncn1 [Azoxystrobin] >= 0.2
true (1)

Quick check, Margin of Exposure vs. RfD >= 0.2? CC(C)(C)C(O)(CCc1ccc(Cl)cc1)Cn1cncn1 (centres unmarked) [Tebuconazole]
true (1)

---

- condition-details: herbicides, Table A; 10 ppm in pool water, child 22 kg
measured-property: Margin of Exposure vs. RfD (Target > 1)
# respond with the number and nothing more

Briefly, Margin of Exposure vs. RfD (Target > 1) measured for CCCC(=NOCC)C1=C(O)CC(CC(C)SCC)CC1=O (stereo not shown) [Sethoxydim] : 12

# Margin of Exposure vs. RfD (Target > 1) (compound: Cc1[nH]c(=O)n(C(C)(C)C)c(=O)c1Cl [Terbacil, 3-tert-Butyl-5-chloro-6-methyluracil] ) is 0.17

Entry CCSC(=O)N1CCCCCC1 [Molinate] ; Margin of Exposure vs. RfD (Target > 1) = 0.03

Record CCc1cccc(CC)c1N(COC)C(=O)CCl [Alachlor] . Reported Margin of Exposure vs. RfD (Target > 1): 0.1

Margin of Exposure vs. RfD (Target > 1) for CC(C)N1C(=O)c2ccccc2NS1(=O)=O [Bentazon] is 0.4

Lab note: COC(=O)c1c(Cl)nn(C)c1S(=O)(=O)NC(=O)Nc1nc(OC)cc(OC)n1 [Halosulfuronmethyl] gave Margin of Exposure vs. RfD (Target > 1) of 1.3

Per the record, CCC(=O)Nc1ccc(Cl)c(Cl)c1 [Propanil, N-(3,4-dichlorophenyl)propanamide] has Margin of Exposure vs. RfD (Target > 1) of 0.1

---

- method-notes: Margin of exposure versus NOEL (estimated total daily dose to a child in a swimming pool)
- condition-details: herbicides, Table A; ratio of NOEL to estimated daily dose, 10 ppm in pool water, child 22 kg, 3 hours per day
Field: Margin of Exposure vs NOEL (Target > 100). Provide a value for each of the molecules that follow.
Please reply with the value in numeric form only.

Reported Margin of Exposure vs NOEL (Target > 100) for CCc1cccc(CC)c1N(COC)C(=O)CCl was 13

Item: COc1nc(C)nc(NC(=O)NS(=O)(=O)c2ccccc2Cl)n1 | Margin of Exposure vs NOEL (Target > 100): 67

Looking up CCCC(=NOCC)C1=C(O)CC(CC(C)SCC)CC1=O (centres unmarked) , I see its Margin of Exposure vs NOEL (Target > 100) listed as 119

Noted for CCNc1nc(NC(C)C)nc(SC)n1 : its Margin of Exposure vs NOEL (Target > 100) reads 25

Margin of Exposure vs NOEL (Target > 100) reading for CC(C)N1C(=O)c2ccccc2NS1(=O)=O : 41

// recorded Margin of Exposure vs NOEL (Target > 100) for CCC(=O)Nc1ccc(Cl)c(Cl)c1 [Propanil, N-(3,4-dichlorophenyl)propanamide] : 67

Form: molecule = CN(C)c1nc(=O)n(C2CCCCC2)c(=O)n1C ; Margin of Exposure vs NOEL (Target > 100) = 63

Reported Margin of Exposure vs NOEL (Target > 100) of CC(C)OC(=O)Nc1cccc(Cl)c1 : 67

---

- condition-details: human, 3 hours per day, 10 ppm
Please respond with reported Margin of Exposure vs. RfD for every item in the list.
Reply with the value as a number alone.

Reported Margin of Exposure vs. RfD of Cc1cc(C2CC2)nc(Nc2ccccc2)n1 : 0.5

The molecule identified as CC(C)NC(=O)N1CC(=O)N(c2cc(Cl)cc(Cl)c2)C1=O registered its Margin of Exposure vs. RfD at 0.3

For this molecule ( COc1ccc(C(=CC(=O)N2CCOCC2)c2ccc(Cl)cc2)cc1OC ), measured Margin of Exposure vs. RfD is 0.8

Short answer for C=CC1(C)OC(=O)N(c2cc(Cl)cc(Cl)c2)C1=O (stereo not shown) : Margin of Exposure vs. RfD was 0.3

---

- method-notes: Margin of exposure versus NOEL (estimated total daily dose to a child in a swimming pool)
- condition-details: agricultural fungicides, Table B
Kindly supply the reported Margin of Exposure vs NOEL values for the records listed here.
Output: the number by itself.

Noted for CCCOC(=O)NCCCN(C)C.Cl : its Margin of Exposure vs NOEL reads 438

In plain terms, C=CCOC(Cn1ccnc1)c1ccc(Cl)cc1Cl (stereo not drawn) has a documented Margin of Exposure vs NOEL of 17

The reported Margin of Exposure vs NOEL of the compound COCC(=O)N(c1c(C)cccc1C)C(C)C(=O)OC (racemic) [Metalaxyl] was 98

The value of Margin of Exposure vs NOEL measured for the compound CC(C)(C)C(O)C(Oc1ccc(Cl)cc1)n1cncn1 (stereo not drawn) turned out to be 50

According to the records, this compound CCSC(=O)N(CC)C1CCCCC1 [Cycloate, S-ethyl cyclohexyl(ethyl)thiocarbamate] displays Margin of Exposure vs NOEL of 1

Documented Margin of Exposure vs NOEL of Cc1cc(C2CC2)nc(Nc2ccccc2)n1 : 50

Documented Margin of Exposure vs NOEL of COc1ccc(C(=CC(=O)N2CCOCC2)c2ccc(Cl)cc2)cc1OC : 88

In plain terms, CC(=O)O.CCCCCCCCCCCCNC(=N)N [Dodine, 1-dodecylguanidine acetate] has a documented Margin of Exposure vs NOEL of 17

Recorded result, CC(C)(C)C(=O)C(Oc1ccc(Cl)cc1)n1cncn1 (stereo not drawn) , Margin of Exposure vs NOEL: 104

For this compound ( C=CC1(C)OC(=O)N(c2cc(Cl)cc(Cl)c2)C1=O (stereo not drawn) ), measured Margin of Exposure vs NOEL is 33

The compound listed as CC1=C(C(=O)Nc2ccccc2)SCCO1 has a reported Margin of Exposure vs NOEL of 116

Lookup result for CC(C)(C)C(O)(CCc1ccc(Cl)cc1)Cn1cncn1 (stereo not drawn) ; measured Margin of Exposure vs NOEL: 13

Entry CO/C=C(/C(=O)OC)c1ccccc1Oc1cc(Oc2ccccc2C#N)ncn1 — recorded Margin of Exposure vs NOEL = 240

Per the record, CC(C)NC(=O)N1CC(=O)N(c2cc(Cl)cc(Cl)c2)C1=O has Margin of Exposure vs NOEL of 81

For this compound ( N#Cc1c[nH]cc1-c1cccc2c1OC(F)(F)O2 ), measured Margin of Exposure vs NOEL is 44

---

- condition-details: agricultural fungicides, Table B
measured-property: Margin of Exposure vs. RfD
Give only the figure.

Record summary for CC(C)(C)C(O)C(Oc1ccc(Cl)cc1)n1cncn1 (stereo not drawn) : reported Margin of Exposure vs. RfD = 0.5

Reported Margin of Exposure vs. RfD ( CC(C)(C)C(=O)C(Oc1ccc(Cl)cc1)n1cncn1 (stereo not drawn) ) = 0.4

For CC1=C(C(=O)Nc2ccccc2)SCCO1 the compound record lists Margin of Exposure vs. RfD as 1.2

get_value(item= CCCOC(=O)NCCCN(C)C.Cl , readout=Margin of Exposure vs. RfD) returns 1.4

What the record says about COCC(=O)N(c1c(C)cccc1C)C(C)C(=O)OC (racemic) [Metalaxyl] : Margin of Exposure vs. RfD is 1

Lookup result for N#Cc1c[nH]cc1-c1cccc2c1OC(F)(F)O2 ; measured Margin of Exposure vs. RfD: 0.4

---

- method-notes: Margin of exposure versus NOEL (estimated total daily dose to a child in a swimming pool)
- condition-details: herbicides, Table A; ratio of NOEL to estimated daily dose, 10 ppm in pool water, child 22 kg, 3 hours per day
measured-property: Margin of Exposure vs NOEL (Target > 100)
In your answer, state the number alone without any accompanying words.

For reference, reported Margin of Exposure vs NOEL (Target > 100) for COC(=O)c1c(Cl)nn(C)c1S(=O)(=O)NC(=O)Nc1nc(OC)cc(OC)n1 stands at 133

Summary for this molecule, Cc1[nH]c(=O)n(C(C)(C)C)c(=O)c1Cl : Margin of Exposure vs NOEL (Target > 100) is 16

Margin of Exposure vs NOEL (Target > 100) reported for this molecule CSc1nc(NC(C)C)nc(NC(C)C)n1 : 50

// Margin of Exposure vs NOEL (Target > 100) value for COC(=O)c1ccccc1S(=O)(=O)NC(=O)Nc1nc(C)nc(OC)n1 : 333

Entry under test: CCc1cnc(C2=NC(C)(C(C)C)C(=O)N2)c(C(=O)O)c1 (stereo not drawn) . Its Margin of Exposure vs NOEL (Target > 100) was 3333

Lab note: COC(=O)c1ccccc1CS(=O)(=O)NC(=O)Nc1nc(OC)cc(OC)n1 gave Margin of Exposure vs NOEL (Target > 100) of 265

Query COC(=O)c1cccc(C)c1S(=O)(=O)NC(=O)Nc1nc(OCC(F)(F)F)nc(N(C)C)n1 yields Margin of Exposure vs NOEL (Target > 100) of 33

What the record says about CCSC(=O)N1CCCCCC1 [Molinate] : Margin of Exposure vs NOEL (Target > 100) is 3

Looking up CC1(C)CON(Cc2ccccc2Cl)C1=O , I see its Margin of Exposure vs NOEL (Target > 100) listed as 41
